The reported measurements were obtained from patent US20130072665A1.

# EXPERIMENTAL_TARGET: T1, PCSK9 V domain (450-692 of SEQ ID NO: 3) (human, UniProt Q8NBP7 450-692)
# T1 construct: also called v-domain PCSK9
# T1 chain: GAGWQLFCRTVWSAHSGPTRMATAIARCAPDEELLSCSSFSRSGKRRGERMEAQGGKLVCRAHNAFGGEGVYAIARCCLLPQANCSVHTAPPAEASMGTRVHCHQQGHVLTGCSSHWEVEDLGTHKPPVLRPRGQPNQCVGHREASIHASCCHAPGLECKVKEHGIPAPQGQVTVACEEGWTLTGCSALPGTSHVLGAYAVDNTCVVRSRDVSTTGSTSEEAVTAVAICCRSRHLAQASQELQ
# ASSAY_NAME: domain binding ELISA (coated antibody captures the PCSK9 form; OD650)

# BINDER, binding result
data = [
    ("31B12 (antibody, V domains shown) VH: QVQLVESGGGVVQPGRSLRLSCAASGFTFSSYGMHWVRQAPGKGLEWVAIIWYDGSNKYYADSVKGRFTISRDNSKNTLYLQMNSLRAEDTAVYYCARRGGLAARPGGMDVWGQGTTVTVSS VL: SYELTQPPSVSVSPGQTARITCSGDKLGDKYACWYQQKPGQSPVLVIYQNTKWPLGIPERFSGSKSGNTVTLTISGTQAMDEADYYCQAWDSSTVVFGGGTKLTVL", "no binding"),
    ("30B9 (antibody, V domains shown) VH: QVQLVQSGAEVKKPGASVKVSCKASGYPLTSYGISWVRQAPGQGLEWMGWISAYNGNTNYAQKVQGRVTMTTDTSTSTVYMELRSLRSDDTAVYYCARGYGMDVWGQGTTVTVSS VL: QSALTQPASVSGSPGQSITISCTGTSSDVGGYNSVSWYQQHPGKPPKLMIYEVSNRPSGVSNRFSGSKSGNTASLTISGLQAEDEADYFCSSYTSTSMVFGGGTKLTVL", "no binding"),
    ("19H9 (antibody, V domains shown, also called 19H9.2) VH: QVQLVQSGAEVKKPGASVKVSCKASGYALTSYGISWVRQAPGQGLEWMGWISAYNGNTNYAQKVQGRVTMTTDTSTSTVYMELRSLRSDDTAVYYCARGYGMDVWGQGTTVTVSS VL: QSALTQPASVSGSPGQSITISCTGTNSDVGGYNSVSWYQQHPGKPPKLMIYEVSNRPSGISNRFSGSKSGNTASLTISGLQAEDEADYFCSSYTSTSMVFGGGTKLTVL", "no binding"),
]
